Recorded half-life, one value per entry.
- RUN_DESCRIPTION: Pharmacokinetics of oral administration of rats
- Type: in vivo
- TEST_CONDITIONS: male, rat, SD rats, p.o. 5.0 mg/kg, plasma

| COMPOUND | U | half-life |
| --- | --- | --- |
| COc1ccc(-c2c(C#N)cc(C3CCC(N)CC3)nc2-c2ccc(C#N)c(F)c2)cc1F (stereo not drawn) [Compound 14] | h | 5.97 |
| CC(C)(O)Cn1ncc2cc(-c3c(C#N)cc(N4CCCNCC4)nc3-c3ccc(C#N)c(F)c3)c(F)cc21 [Compound 21] | h | 2.84 |
| COc1ccc(-c2c(-c3ccc(C#N)c(F)c3)nc(N3CCC(N)CC3)n(C)c2=O)cc1F [CC-90011, reference compound] | h | 1.44 |
